- target-under-test: α2AAR (α2A-adrenergic receptor) (Homo sapiens, UniProt P08913)
- Construct: expressed in transfected cells; host or cells: HEK293
- Sequence (P08913 1-465): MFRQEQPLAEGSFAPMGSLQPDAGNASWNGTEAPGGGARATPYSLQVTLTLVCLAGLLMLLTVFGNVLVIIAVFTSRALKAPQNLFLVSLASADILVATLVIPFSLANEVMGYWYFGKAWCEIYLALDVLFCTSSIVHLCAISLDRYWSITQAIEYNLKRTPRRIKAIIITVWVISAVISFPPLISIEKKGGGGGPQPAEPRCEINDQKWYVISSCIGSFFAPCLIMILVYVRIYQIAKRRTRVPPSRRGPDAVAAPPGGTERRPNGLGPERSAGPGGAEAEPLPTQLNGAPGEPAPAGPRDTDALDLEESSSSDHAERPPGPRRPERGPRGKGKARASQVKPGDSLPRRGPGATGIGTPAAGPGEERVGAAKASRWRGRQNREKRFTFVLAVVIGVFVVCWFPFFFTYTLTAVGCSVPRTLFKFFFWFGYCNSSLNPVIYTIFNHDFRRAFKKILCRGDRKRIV
- protocol-text: α2AAR FLIPR assay (agonist activity)
- Assay type: cell-based
- measurement-conditions: FLIPR, α2AAR cell line hosted in HEK293 cells; read-out: α2A agonist activity (EC50)
pEC50: −log10 of the molar value.
endpoint-name: pEC50

Fill in: pEC50 of CNS(=O)(=O)c1ccc(CC(Oc2c(Cl)cccc2Cl)C2=NCCN2)cc1 (stereo not drawn) is ___ 6.60 to 7.30

Query Cc1cccc(C(c2cccc(NC(=O)NC3CCOCC3)c2)c2c[nH]cn2)c1C (stereo not drawn) next 7.30 to 8.00

How about Cc1cccc(C(Cc2ccc(S(N)(=O)=O)cc2)c2c[nH]cn2)c1C (stereo not drawn) ? > 8.00

Item: Cc1cccc(C(c2cccc(NC(=O)CC3=CCOCC3)c2)c2c[nH]cn2)c1C (stereo not drawn) > 8.00

For Cc1cccc(C(Cc2ccc(NC(=O)N(C)C3CCOC3)cc2)c2c[nH]cn2)c1C (stereo not drawn) then? > 8.00

// query: COc1cc(CC(c2c[nH]cn2)c2cccc(C)c2C)ccc1C(=O)NC1CCOCC1 (stereo not drawn) > 8.00

Then this molecule: COc1ccccc1C(Cc1cccc(NS(=O)(=O)CC2CCOCC2)c1)NC1=NCCS1 (stereo not drawn) 6.60 to 7.30

Repeat with COCC(=O)Nc1ccc(CC(c2c[nH]cn2)c2cccc(C)c2C)cc1 (stereo not drawn) 7.30 to 8.00

Moving on to the next molecule: Cc1cccc(C(c2c[nH]cn2)c2cccc(C(=O)NCC3CCOCC3)c2F)c1C (stereo not drawn) [compound 124] 7.30 to 8.00

Can you check Cc1cccc(C(c2cccc(NS(=O)(=O)C[C@@H]3CCCO3)c2)c2c[nH]cn2)c1C (stereo partly drawn) next? 7.30 to 8.00

# iterate: CNC(=O)NCCOCCOCC(c1c[nH]cn1)c1cccc(C)c1C (stereo not drawn) [compound 17] 7.30 to 8.00

Then Cc1cccc(C(Cc2ccc(OCC(=O)O)cc2)c2c[nH]cn2)c1C (stereo not drawn) ? 7.30 to 8.00

Cc1cccc(C(c2cccc(C(=O)NCC3CCOCC3)c2)c2c[nH]cn2)c1C (single isomer, unassigned) , same question. > 8.00

Try this molecule next: Cc1cccc(C(c2c[nH]cn2)c2cccc(C(N)=O)c2F)c1C (stereo not drawn) [compound 27] 7.30 to 8.00

Now consider COCCOCCOCCOCC(c1c[nH]cn1)c1cccc(C)c1C (stereo not drawn) . 7.30 to 8.00

Thanks! And Cc1cccc(C(Cc2ccc(NC(=S)C3CCOCC3)cc2)c2c[nH]cn2)c1C (stereo not drawn) ? 7.30 to 8.00

Also Cc1cccc(C(c2cccc(C(=O)NOCC3CCOC3)c2)c2c[nH]cn2)c1C (stereo not drawn) , if possible. 7.30 to 8.00

Now try Cc1cccc(C(Cc2ccc(C(C)C(=O)O)cc2)c2c[nH]cn2)c1C (single isomer, unassigned) [174-A] . < 6.00

Param item: Cc1cccc(C(c2cccc(NC(=O)CC#N)c2)c2c[nH]cn2)c1C (stereo not drawn) [compound 10] 7.30 to 8.00

Now the same for Cc1cccc(C(c2cccc(C(=O)NCC3CCC(O)CC3)c2)c2c[nH]cn2)c1C (stereo not drawn) 7.30 to 8.00

Now this one: COCCOCCOCCOCCOCCOc1ccc(C(c2c[nH]cn2)c2cccc(C)c2C)cc1 (stereo not drawn) < 6.00

Quick one: Cc1cccc(C(c2cccc(NS(C)(=O)=O)c2)c2c[nH]cn2)c1C (stereo not drawn) [compound 29] 7.30 to 8.00

Next molecule up: Cc1cccc(C(c2cccc(NC(=O)OC3CCOC3)c2)c2c[nH]cn2)c1C (stereo not drawn) 7.30 to 8.00

Would you kindly repeat that for Cc1cccc(C(c2cccc(NCCC#N)c2)c2c[nH]cn2)c1C (stereo not drawn) ? 6.60 to 7.30
